- study.system: T1, TX1BP3, O14907
- T1 sequence (O14907 10-122, limits assumed, looked up): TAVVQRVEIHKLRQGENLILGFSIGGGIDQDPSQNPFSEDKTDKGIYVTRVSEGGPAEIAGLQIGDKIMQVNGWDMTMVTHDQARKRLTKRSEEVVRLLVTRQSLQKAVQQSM
- procedure.text: holdup assay
- Design: key: below the threshold = too weak to quantify, mostly under pKd 3.1 to 4
- condition.context: plain residues with an end cap or a label only (N-terminal biotin on a linker: ado-ado)
result.type: pKd

binder: VCMGDHWFDV [PRKN, O60260]
result.type: pKd
recorded.measurement: 3.77
--
binder: FHSIKQSTAV [CRHR1, P34998]
result.type: pKd
recorded.measurement: 4.11
--
binder: KKTPVSRSHL [SLC22A3, O75751]
result.type: pKd
recorded.measurement: 3.53
--
binder: DYSNLRETDI [ADRA1D, P25100]
result.type: pKd
recorded.measurement: 4.51
